The reported measurements were obtained from patent US12655142B2.

Could you please report measured pIC50 for the items listed next?
Target: c-Kit(V654A) (Homo sapiens, UniProt P10721, V654A)
Construct: recombinant human c-Kit, amino acids 544-end containing the V654A mutation; GST (N)
Sequence (P10721 544-976 V654A): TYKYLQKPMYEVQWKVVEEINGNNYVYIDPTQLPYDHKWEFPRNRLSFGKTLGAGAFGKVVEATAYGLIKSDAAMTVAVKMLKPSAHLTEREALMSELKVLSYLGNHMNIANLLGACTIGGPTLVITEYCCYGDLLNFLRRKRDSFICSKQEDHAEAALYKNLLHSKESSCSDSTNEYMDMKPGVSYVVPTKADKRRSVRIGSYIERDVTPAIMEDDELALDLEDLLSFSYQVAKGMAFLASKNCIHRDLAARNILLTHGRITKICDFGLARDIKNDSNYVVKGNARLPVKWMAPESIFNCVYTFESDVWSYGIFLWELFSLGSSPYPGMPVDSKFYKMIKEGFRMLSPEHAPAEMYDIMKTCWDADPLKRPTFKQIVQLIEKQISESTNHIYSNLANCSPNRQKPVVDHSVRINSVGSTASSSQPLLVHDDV
Assay: c-Kit(V654A) assay (33P-ATP filter binding kinase assay)
Conditions: recombinant human c-Kit aa 544-end V654A, ATP 200 μM
Give bare numbers, as −log10 of the molar value.

Cn1cc(-c2ccc(CNc3cc(-c4cnc5cc(OCCN6CCN(C7CC7)CC6)ccn45)ncn3)cc2)cn1 [A197] :: 7.92
Cn1cc(-c2ccc(CNc3cc(-c4cnc5cc(OCCN6CC7CC7C6)ccn45)ncn3)cc2)cn1 (centres unmarked) [A127] :: 8.17
CN1CC2CCC(C1)N2CCOc1ccn2c(-c3cc(NCc4ccc(-c5cnn(C)c5)cc4)ncn3)cnc2c1 [A198] :: 8.00

Give me pIC50 for each of these compounds, listed below.
1. COc1ccn2c(-c3cc(NCc4ccc(-c5cnn(CCO)c5)cc4)ncn3)cnc2c1 [A30]
2. COc1ccn2c(-c3cc(NCc4ccc(-c5cn(C)nc5OC)cc4)ncn3)cnc2c1 [A50]
3. COCCn1ncc(-c2ccc(CNc3cc(-c4cnc5cc(OC)ccn45)ncn3)cc2)n1 [A46]
4. Cn1ncc(-c2ccc(CNc3cc(-c4cnc5cc(N6CCN(C7COC7)CC6)ccn45)ncn3)cc2)n1 [A244]
5. Cn1cc(-c2ccc(CNc3cc(-c4cnc5cc(N6CCCC6)ccn45)ncn3)cc2)cn1 [A177]

**Result**
1: 7.57; 2: 7.60; 3: 8.19; 4: 7.68; 5: 7.77

* * *

Could you please report measured log10 of IC50 for the items listed next?
Molecular target: GIST430/654 cell line expressing mutated constitutively active cKIT receptor tyrosine kinase (Δ560-576 deletion and V654A point mutation) (Homo sapiens, UniProt P10721, DEL560-576/V654A)
Construct: endogenous in cells
Sequence (P10721 with tags, fused parts or gaps DEL560-576/V654A): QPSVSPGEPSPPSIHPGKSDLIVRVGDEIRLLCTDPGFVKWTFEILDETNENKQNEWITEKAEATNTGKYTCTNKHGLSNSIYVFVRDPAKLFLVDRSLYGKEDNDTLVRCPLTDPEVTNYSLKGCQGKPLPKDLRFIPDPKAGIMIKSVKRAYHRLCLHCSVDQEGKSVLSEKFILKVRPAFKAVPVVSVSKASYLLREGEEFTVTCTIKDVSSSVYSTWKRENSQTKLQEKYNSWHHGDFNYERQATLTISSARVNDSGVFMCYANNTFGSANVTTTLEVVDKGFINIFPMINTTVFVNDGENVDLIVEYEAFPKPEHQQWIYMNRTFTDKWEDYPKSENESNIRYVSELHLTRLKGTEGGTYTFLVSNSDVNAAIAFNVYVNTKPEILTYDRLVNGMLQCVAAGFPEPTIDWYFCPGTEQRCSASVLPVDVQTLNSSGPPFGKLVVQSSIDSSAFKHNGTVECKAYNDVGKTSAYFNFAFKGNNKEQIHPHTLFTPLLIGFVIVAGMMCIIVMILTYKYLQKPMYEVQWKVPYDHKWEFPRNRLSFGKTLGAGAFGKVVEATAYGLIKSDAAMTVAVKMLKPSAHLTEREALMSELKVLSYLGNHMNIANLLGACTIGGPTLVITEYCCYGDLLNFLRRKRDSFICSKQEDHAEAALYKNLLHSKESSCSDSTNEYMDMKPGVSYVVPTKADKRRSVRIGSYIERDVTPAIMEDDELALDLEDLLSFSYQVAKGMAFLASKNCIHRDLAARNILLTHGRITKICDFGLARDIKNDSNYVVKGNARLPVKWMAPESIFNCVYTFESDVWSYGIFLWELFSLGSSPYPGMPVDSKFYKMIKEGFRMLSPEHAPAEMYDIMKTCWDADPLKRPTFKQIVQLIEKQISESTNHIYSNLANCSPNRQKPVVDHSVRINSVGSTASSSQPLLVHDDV
Assay: Cellular cKIT autophosphorylation (phospho-Y307-cKIT, Luminex bead assay) in GIST430/654 cells
Conditions: compounds 45 min, read-out: GIST 430/654 IC50
Note the log scale: values are log10 of IC50 expressed in nM.

A selection of reference data follows.
Cn1cc(-c2ccc(CNc3cc(-c4cnc5cc(CCN6CCC(F)(F)C6)ccn45)ncn3)cc2)cn1 [A169] :: 2.48
OCCOc1ccn2c(-c3cc(NCc4ccc(-c5cocn5)cc4)ncn3)cnc2c1 [A251] :: 1.64
COCCOc1ccn2c(-c3cc(NCc4ccc(-c5ccn(C)n5)cc4)ncn3)cnc2c1 [A7] :: 2.48
Cn1cc(-c2ccc(CNc3cc(-c4cnc5cc(OCCN6CCOCC6)ccn45)ncn3)cc2)cn1 [A56] :: 1.70
Cn1ncc(-c2ccc(CNc3cc(-c4cnc5cc(OCC6CCNCC6)ccn45)ncn3)cc2)n1 [A165] :: 1.76

Give me log10 of IC50 for each of these compounds, listed below.
1. COc1ccn2c(-c3cc(NCc4ccc(-c5coc(C)n5)cc4)ncn3)cnc2c1 [A42]
2. COc1ccn2c(-c3cc(NCc4ccc(-c5cncn5C)cc4)ncn3)cnc2c1 [A39]
3. Cn1cc(-c2ccc(CNc3cc(-c4cnc5cc(OC6CCOC6)ccn45)ncn3)cc2)cn1 (stereo not drawn) [A57]
4. Cn1cc(-c2ccc(CNc3cc(-c4cnc5cc(OCCS(C)(=O)=O)ccn45)ncn3)cc2)cn1 [A224]

**Result**
1. 1.77
2. 2.81
3. 2.43
4. 2.00

* * *

Target: GIST430/654 cell line expressing mutated constitutively active cKIT receptor tyrosine kinase (Δ560-576 deletion and V654A point mutation) (Homo sapiens, UniProt P10721, DEL560-576/V654A)
Construct: endogenous in cells
Experiment: Cellular cKIT autophosphorylation (phospho-Y307-cKIT, Luminex bead assay) in GIST430/654 cells
Conditions: compounds 45 min, read-out: GIST 430/654 IC50
The threshold is 0.1 µM. Values of IC50 beneath it are tagged 1.0; values meeting or exceeding it are tagged 0.0.

**Query** I wonder whether `COCCOc1ccn2c(-c3cc(NCc4ccc(-c5cnn(C)n5)cc4)ncn3)cnc2c1` has IC50 below 0.1 µM. Can you tell?
**Result** 1.0

**Query** I wonder whether `COc1ccn2c(-c3cc(NCc4ccc(-c5ccccc5)cc4)ncn3)cnc2c1` has IC50 below 0.1 µM. Can you tell?
**Result** 0.0

**Query** I wonder whether `Cn1cc(-c2ccc(CNc3cc(-c4cnc5cc(CCN6CCN(C7COC7)CC6)ccn45)ncn3)cc2)cn1` has IC50 below 0.1 µM. Can you tell?
**Result** 0.0

**Query** I wonder whether `CN1CCC(CCOc2ccn3c(-c4cc(NCc5ccc(-c6cnn(C)n6)cc5)ncn4)cnc3c2)CC1` has IC50 below 0.1 µM. Can you tell?
**Result** 1.0

**Query** I wonder whether `COc1ccn2c(-c3cc(NCc4ccc(-c5ncc(C)o5)cc4)ncn3)cnc2c1` has IC50 below 0.1 µM. Can you tell?
**Result** 0.0

**Query** I wonder whether Cn1cc(-c2ccc(CNc3cc(-c4cnc5cc(N6CCC(O)C6)ccn45)ncn3)cc2)cn1 (stereo not drawn) has IC50 below 0.1 µM. Can you tell?
**Result** 1.0

**Query** I wonder whether `Cc1nc(-c2ccc(CNc3cc(-c4cnc5cc(OCCN6CCC(=O)N(C)CC6)ccn45)ncn3)cc2)co1` has IC50 below 0.1 µM. Can you tell?
**Result** 1.0

**Query** I wonder whether `COc1ccn2c(-c3cc(NCc4cccc(-c5cnn(C)c5)c4)ncn3)cnc2c1` has IC50 below 0.1 µM. Can you tell?
**Result** 0.0

**Query** I wonder whether `Cn1cc(-c2ccc(CNc3cc(-c4cnc5cc(OCCN6CCCC6)ccn45)ncn3)cc2)cn1` has IC50 below 0.1 µM. Can you tell?
**Result** 1.0

* * *

Test: Determination of Efflux-Ratio (ER) in Caco-2 cells
Details: human, Caco-2, pH 7.4
READOUT LABEL: efflux ratio at 2 h, 1 μM

Cc1nc2n(n1)CCN(CCOc1ccn3c(-c4cc(NCc5ccc(-c6cnn(C)c6)cc5)ncn4)cnc3c1)C2 :: 15 to 50
Cn1cc(-c2ccc(CNc3cc(-c4cnc5cc(N6CCN(C7COC7)CC6)ccn45)ncn3)cc2)cn1 :: < 15
Cn1ncc(-c2ccc(CNc3cc(-c4cnc5cc(OCCN6CCC6)ccn45)ncn3)cc2)n1 :: < 15

Give me efflux ratio at 2 h, 1 μM for each of these compounds, listed below.
1. Cn1cc(-c2ccc(CNc3cc(-c4cnc5cc(-c6cnn(C)c6)ccn45)ncn3)cc2)cn1
2. COCCn1ncc(-c2ccc(CNc3cc(-c4cnc5cc(OC)ccn45)ncn3)cc2)n1
3. FC(F)(F)Oc1ccc(CNc2cc(-c3cnc4cc(OCCN5CCn6nncc6C5)ccn34)ncn2)cc1
4. Cn1cc(-c2ccc(CNc3cc(-c4cnc5cc(N6CCC(CCO)C6)ccn45)ncn3)cc2)cn1 (stereo not shown)
5. Cn1cc(-c2ccc(CNc3cc(-c4cnc5cc(OCCN6CC7CC6C[S+]7[O-])ccn45)ncn3)cc2)cn1 (stereo not shown)
6. COCCn1cc(-c2ccc(CNc3cc(-c4cnc5cc(OC)ccn45)ncn3)cc2)cn1
7. CN1CC(COc2ccn3c(-c4cc(NCc5ccc(-c6cnn(C)c6)cc5)ncn4)cnc3c2)C1

**Result**
1. < 15
2. < 15
3. < 15
4. < 15
5. > 50
6. < 15
7. > 50

* * *

Could you please report measured IC50 for the items listed next?
Target: GIST430/654 cell line expressing mutated constitutively active cKIT receptor tyrosine kinase (Δ560-576 deletion and V654A point mutation) (Homo sapiens, UniProt P10721, DEL560-576/V654A)
Construct: endogenous in cells
Assay: Cellular cKIT autophosphorylation (phospho-Y307-cKIT, Luminex bead assay) in GIST430/654 cells
Settings: compounds 45 min, read-out: GIST 430/654 IC50
Numbers only, in nM.

Cn1cc(-c2ccc(CNc3cc(-c4cnc5cc(OCC6CCN(C7COC7)CC6)ccn45)ncn3)cc2)cn1 [A78] :: 79

Give me IC50 for each of these molecules, listed below.
1. FC1(F)CCN(c2ccc(CNc3cc(-c4cnc5ccccn45)ncn3)cn2)C1 [A150]
2. Cc1nc(-c2ccc(CNc3cc(-c4cnc5cc(OCCN6CCn7nncc7C6)ccn45)ncn3)cc2)co1 [A264]
3. Cn1cc(-c2ccc(CNc3cc(-c4cnc5cc(OCCN6CCS(=O)(=O)CC6)ccn45)ncn3)cc2)cn1 [A138]
4. COCCn1cc(-c2ccc(CNc3cc(-c4cnc5cc(OC)ccn45)ncn3)cc2)cn1 [A19]
5. Cn1cc(-c2ccc(CNc3cc(-c4cnc5cc(OCCN6CCN(C7COC7)CC6)ccn45)ncn3)cc2)cn1 [A65]
6. Cn1cc(-c2ccc(CNc3cc(-c4cnc5cc(OCCN6CCN(C7CC7)CC6)ccn45)ncn3)cc2)cn1 [A197]
7. Cn1ncc(-c2ccc(CNc3cc(-c4cnc5cc(OCc6cccnc6)ccn45)ncn3)cc2)n1 [A112]

**Result**
1: 140; 2: 36; 3: 64; 4: 71; 5: 46; 6: 150; 7: 260
